Target: RORc ligand binding domain (Homo sapiens, UniProt P51449)
Construct: host or cells: E. coli
Sequence (P51449 269-508 limits assumed, species assumed): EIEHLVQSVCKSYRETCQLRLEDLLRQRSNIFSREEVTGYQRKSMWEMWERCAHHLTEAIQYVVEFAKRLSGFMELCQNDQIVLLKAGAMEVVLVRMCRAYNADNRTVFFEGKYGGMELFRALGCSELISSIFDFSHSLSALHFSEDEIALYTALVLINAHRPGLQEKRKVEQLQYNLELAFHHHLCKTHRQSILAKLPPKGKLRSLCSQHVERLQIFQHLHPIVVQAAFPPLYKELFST
Assay: In Vitro RORc Ligand Binding Assay (25-[3H]hydroxycholesterol radioligand filtration)
Settings: In Vitro RORc Ligand Binding Assay; Table 4; read-out: RORc IC50
pIC50: −log10 of the molar value.

{"MOLECULE": "CC(=O)N1CCN(c2ccc(CN3[C@@H](C)CCC(c4ccccc4)S3(=O)=O)c(F)c2)C[C@@H]1C(N)=O (stereo partly shown)", "pIC50": 6.81}
{"MOLECULE": "C[C@H]1CCC(c2ccccc2)S(=O)(=O)N1Cc1ccc(C(=O)N2CCN(S(=O)(=O)N(C)C)CC2)cc1 (stereo partly shown)", "pIC50": 5.13}
{"MOLECULE": "CC[C@H]1CCC(c2ccccc2)S(=O)(=O)N1Cc1ccc(NC2CCN(S(C)(=O)=O)CC2)cc1F (single isomer, unassigned) [Example 240]", "pIC50": 8.40}
{"MOLECULE": "C[C@H]1CCC(c2ccccc2)S(=O)(=O)N1Cc1ccc(OC2CCN(S(C)(=O)=O)CC2)cc1F (single isomer, unassigned) [Example 32]", "pIC50": 7.77}
{"MOLECULE": "C[C@H]1CCC(c2ccccc2)S(=O)(=O)N1Cc1ccc(N2CCn3nccc3C2)cc1F (single isomer, unassigned) [Example 133]", "pIC50": 6.61}
{"MOLECULE": "COCCNC(=O)[C@@H]1CN(c2ccc(CN3[C@@H](C)CCC(c4ccccc4)S3(=O)=O)c(F)c2)CCN1C(C)=O (stereo partly shown)", "pIC50": 6.16}
{"MOLECULE": "CC(=O)N1CCN(c2ccc(CN3CC(C)(C)CC(c4ccccc4)S3(=O)=O)c(F)c2)CC1 (single isomer, unassigned) [Example 171]", "pIC50": 6.70}
{"MOLECULE": "CC(=O)N1CCN(c2ccc(CN3C4CC(C4)CC(c4ccccc4)S3(=O)=O)c(F)c2)CC1 (single isomer, unassigned) [Example 300]", "pIC50": 7.36}
{"MOLECULE": "C[C@H]1CCC(c2ccccc2)S(=O)(=O)N1Cc1ccc(N2CCc3[nH]ncc3C2)cc1F (single isomer, unassigned) [Example 145]", "pIC50": 6.62}
{"MOLECULE": "CC(=O)N1CCN(c2ccc(CN3[C@@H](C)CCC(c4ccccc4C#N)S3(=O)=O)c(F)c2)CC1 (single isomer, unassigned) [Example 207]", "pIC50": 5.74}
{"MOLECULE": "CC(=O)N1CCN(c2ccc(CN3[C@@H](C)CCC(c4ccccc4)S3(=O)=O)c(F)c2)[C@@H](C)C1 (stereo partly shown)", "pIC50": 8.22}
{"MOLECULE": "CC(=O)N1CCN(c2ccc(CN3[C@H](C)CCC(c4ccccc4)S3(=O)=O)cn2)CC1 (single isomer, unassigned) [Example 49]", "pIC50": 5.26}
{"MOLECULE": "C[C@H]1CCC(c2ccccc2)S(=O)(=O)N1Cc1ccc(C(=O)N2CC3(CCOCC3)C2)cc1 (stereo partly shown)", "pIC50": 5.97}

###

Target: RORc ligand binding domain (Homo sapiens, UniProt P51449)
Construct: host or cells: E. coli
Assay: In Vitro RORc Ligand Binding Assay (25-[3H]hydroxycholesterol radioligand filtration)
Conditions: In Vitro RORc Ligand Binding Assay; Table 4; read-out: RORc IC50
pIC50: −log10 of the molar value.

{"COMPOUND": "CC(=O)N1CCN(c2ccc(CN3[C@@H](C)CCC(c4ccccc4)S3(=O)=O)cc2)CC1 (single isomer, unassigned) [Example 41]", "SYSTEM NAME": "RORc ligand binding domain (Homo sapiens, UniProt P51449)", "pIC50": 6.90}
{"COMPOUND": "CC(=O)N1CCN(c2ccc(CN3[C@@H](C)CCC(c4cccc(F)c4)S3(=O)=O)c(F)c2)CC1 (single isomer, unassigned) [Example 127]", "SYSTEM NAME": "RORc ligand binding domain (Homo sapiens, UniProt P51449)", "pIC50": 7.24}
{"COMPOUND": "O=S1(=O)C(c2ccccc2)CCCCN1Cc1ccc(N2CCC(n3cnnc3)CC2)cc1 (single isomer, unassigned) [Example 342]", "SYSTEM NAME": "RORc ligand binding domain (Homo sapiens, UniProt P51449)", "pIC50": 7.12}
{"COMPOUND": "CC(=O)N1CCN(c2ccc(CN3[C@@H](C)CCC(c4ccccc4)S3(=O)=O)c(F)c2)C[C@@H]1CO (stereo partly drawn)", "SYSTEM NAME": "RORc ligand binding domain (Homo sapiens, UniProt P51449)", "pIC50": 7.09}
{"COMPOUND": "COC(=O)[C@H]1CN(c2ccc(CN3[C@@H](C)CCC(c4ccccc4)S3(=O)=O)c(F)c2)CCN1C(C)=O (stereo partly drawn)", "SYSTEM NAME": "RORc ligand binding domain (Homo sapiens, UniProt P51449)", "pIC50": 7.51}
{"COMPOUND": "C[C@H]1CCC(c2ccccc2)S(=O)(=O)N1Cc1ccc(N2CCC(n3cnnc3)CC2)cc1F (single isomer, unassigned) [Example 151]", "SYSTEM NAME": "RORc ligand binding domain (Homo sapiens, UniProt P51449)", "pIC50": 7.57}
{"COMPOUND": "C[C@H]1CCC(c2ccccc2)S(=O)(=O)N1Cc1ccc(C(=O)N(C)CC2CCCO2)cc1 (stereo partly drawn)", "SYSTEM NAME": "RORc ligand binding domain (Homo sapiens, UniProt P51449)", "pIC50": 5.88}
{"COMPOUND": "CC(=O)N1CCN(c2ccc(CN3[C@@H](C)CCC(c4cccc(Cl)c4)S3(=O)=O)c(F)c2)CC1 (single isomer, unassigned) [Example 200]", "SYSTEM NAME": "RORc ligand binding domain (Homo sapiens, UniProt P51449)", "pIC50": 7.77}
{"COMPOUND": "C[C@@H](O)C(=O)N1CCN(c2ccc(CN3CCCCC(c4ccccc4)S3(=O)=O)cc2)CC1 (single isomer, unassigned) [Example 317]", "SYSTEM NAME": "RORc ligand binding domain (Homo sapiens, UniProt P51449)", "pIC50": 5.47}
{"COMPOUND": "C[C@H]1CCC(c2ccccc2)S(=O)(=O)N1Cc1ccc(N2CC3(CCOC3)C2)cc1F (single isomer, unassigned) [Example 95]", "SYSTEM NAME": "RORc ligand binding domain (Homo sapiens, UniProt P51449)", "pIC50": 7.03}
{"COMPOUND": "CC(=O)N1CCN(c2ccc(CN3C[C@H](C)OCC(c4ccccc4)S3(=O)=O)c(F)c2)CC1 (single isomer, unassigned) [Example 28]", "SYSTEM NAME": "RORc ligand binding domain (Homo sapiens, UniProt P51449)", "pIC50": 6.98}
{"COMPOUND": "CC(=O)N1CC2CC2(NC(=O)c2ccc(CN3[C@@H](C)CCC(c4ccccc4)S3(=O)=O)cc2)C1 (stereo partly drawn)", "SYSTEM NAME": "RORc ligand binding domain (Homo sapiens, UniProt P51449)", "pIC50": 5.64}
{"COMPOUND": "CC(=O)N1CCN(c2ccc(CN3[C@@H](C)CCC(c4ccccc4)S3(=O)=O)c(F)c2)C[C@@H]1C(=O)O (stereo partly drawn)", "SYSTEM NAME": "RORc ligand binding domain (Homo sapiens, UniProt P51449)", "pIC50": 6.42}
{"COMPOUND": "C[C@H]1CCC(c2ccccc2)S(=O)(=O)N1Cc1ccc(C(=O)N[C@@H]2CCN(C(N)=O)C2)cc1 (stereo partly drawn)", "SYSTEM NAME": "RORc ligand binding domain (Homo sapiens, UniProt P51449)", "pIC50": 5.46}
{"COMPOUND": "C[C@H]1CCC(c2ccccc2)S(=O)(=O)N1Cc1ccc(C(=O)N2C3CNC(=O)C2C3)cc1 (stereo partly drawn)", "SYSTEM NAME": "RORc ligand binding domain (Homo sapiens, UniProt P51449)", "pIC50": 5.46}

###

Reported values of pIC50 for individual entries
Molecular target: RORc ligand binding domain (Homo sapiens, UniProt P51449)
Construct: host or cells: E. coli
Assay: In Vitro RORc Ligand Binding Assay (25-[3H]hydroxycholesterol radioligand filtration)
Conditions: In Vitro RORc Ligand Binding Assay; Table 4; read-out: RORc IC50
pIC50: −log10 of the molar value.
OUTCOME MEASURE: pIC50

{"COMPOUND": "CS(=O)(=O)N1CCC(Oc2ccc(CN3CCCC(c4ccccc4)S3(=O)=O)c(F)c2)CC1 (single isomer, unassigned) [Example 4]", "SYSTEM NAME": "RORc ligand binding domain (Homo sapiens, UniProt P51449)", "NUMERIC RESULT": 7.43}
{"COMPOUND": "C[C@H](O)C(=O)N1CCN(c2ccc(CN3CCCCC(c4ccccc4)S3(=O)=O)c(F)c2)CC1 (single isomer, unassigned) [Example 305]", "SYSTEM NAME": "RORc ligand binding domain (Homo sapiens, UniProt P51449)", "NUMERIC RESULT": 6.78}
{"COMPOUND": "C[C@H]1CCC(c2ccccc2)S(=O)(=O)N1Cc1ccc(C(=O)NC2CCS(=O)(=O)CC2)cc1 (stereo partly drawn) [Example 386]", "SYSTEM NAME": "RORc ligand binding domain (Homo sapiens, UniProt P51449)", "NUMERIC RESULT": 5.83}
{"COMPOUND": "CC(=O)N1CCN(c2cnc(CN3[C@@H](C)CCC(c4ccccc4)S3(=O)=O)cn2)CC1 (single isomer, unassigned) [Example 179]", "SYSTEM NAME": "RORc ligand binding domain (Homo sapiens, UniProt P51449)", "NUMERIC RESULT": 6.03}
{"COMPOUND": "COCC(=O)N1CCN(c2ccc(CN3[C@@H](C)CCC(c4ccccc4)S3(=O)=O)c(F)c2)CC1 (single isomer, unassigned) [Example 74]", "SYSTEM NAME": "RORc ligand binding domain (Homo sapiens, UniProt P51449)", "NUMERIC RESULT": 7.54}
{"COMPOUND": "O=C(CO)N1CCN(c2ccc(CN3CCCCC(c4ccccc4)S3(=O)=O)c(F)c2)CC1 (single isomer, unassigned) [Example 313]", "SYSTEM NAME": "RORc ligand binding domain (Homo sapiens, UniProt P51449)", "NUMERIC RESULT": 6.23}
{"COMPOUND": "CC(=O)N1CCN(c2cnc(CN3[C@@H](C)CCC(c4ccccc4)S3(=O)=O)cn2)CC1 (single isomer, unassigned) [Example 178]", "SYSTEM NAME": "RORc ligand binding domain (Homo sapiens, UniProt P51449)", "NUMERIC RESULT": 5.84}
{"COMPOUND": "C[C@@H]1CC(c2ccccc2)S(=O)(=O)N(Cc2ccc(NC3CCN(S(C)(=O)=O)CC3)cc2F)C1 (stereo partly drawn) [Example 227]", "SYSTEM NAME": "RORc ligand binding domain (Homo sapiens, UniProt P51449)", "NUMERIC RESULT": 8.52}
{"COMPOUND": "C[C@H]1CCC(c2ccccc2)S(=O)(=O)N1Cc1ccc(N2CCn3cnnc3C2)cc1F (single isomer, unassigned) [Example 149]", "SYSTEM NAME": "RORc ligand binding domain (Homo sapiens, UniProt P51449)", "NUMERIC RESULT": 5.84}

Hey, just so you know, these numbers are from patent US9115101B2.
